# Lookup of reported pIC50 keyed by entry
System: Streptococcus sanguis 10556
Assay: Inhibition of bacterial growth (optical density after 24 hours)
Type: cell-based
Conditions: S.sanguis 10556; 24 hours at 37°C; means of triplicate experiments; read-out: ID/50 (the source's name)
// pIC50 is dimensionless: -log10 of concentration (M)

// worked examples, pIC50 included
1. [F-].[Na+] [NaF] : 2.93
2. N.N.[F-].[F-].[F-].[F-].[F-].[F-].[Sn] [Sn(NH4)2F6, stannic ammonium fluoride] : 3.66

In the following, a different compound is considered.
So for [F][Sn][F] [SnF2] , the logged pIC50 turned out to be 3.36
